This section presents binders with their documented Inhibition rate (%) at 0.823 nM values.
Biological target: T1, CTLA-4-hFc (immunogen A; hFc-labeled CTLA-4 extracellular domain protein) (human, UniProt P16410 36-161)
T1 construct: range 36-161; Made in HEK293 cells, purified on protein A; also called CLTA-4-hFc; CTLA-4 protein; not shown: human IgG Fc fragment (hFc) of the pCpC vector
T1 sequence (looked up): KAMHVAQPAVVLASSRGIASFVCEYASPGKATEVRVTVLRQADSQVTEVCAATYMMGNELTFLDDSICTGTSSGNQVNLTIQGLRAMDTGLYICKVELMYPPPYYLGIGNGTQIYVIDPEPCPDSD
Assay: ELISA, coated CTLA-4-hFc, competitor biotin-B7.1-hFc
quantity_measured: Inhibition rate (%) at 0.823 nM

>>> reading("31C12F3 (chimeric antibody purified from hybridoma supernatant) (antibody, V domains shown, also called mAb010) VH: QVQLVESGGGVVQPGRSLILSCAASGFTFSSYGMHWVRQAPGKGLEWVAVVWYDGSNKYYADSVKGRFTISRDNSKNTLYLQMSSLRAEDTAVYYCARGGIVVPGLFEYWGQGSLVTVSS VL: DIQMTQSPSSLSASVGDRVAITCRTSQSISNLLNWYQQKPGKAPELLIYAPSSFQSGVPSRFRGSGSGTDFTLTISSLQPEDFATYYCQQSYSTPFTFGPGTKVDIK")
"72.2%"
>>> reading("97A8D1 (chimeric antibody purified from hybridoma supernatant) (antibody, V domains shown, also called mAb49; mAb049) VH: QVQLVESGGGVVQPGRSLRLSCVASGFTFNNYGMNWVRQAPGKGLEWVAVIWYGGRNKFYADSVKGRFTISRDNSKNTLYLEMNSLRAEDTAVYYCARADWGGWFDPWGQGTLVTVSS VL: EIVLTQSPGTLSLSPGERATLSCRASQSVSSTYLAWYQQKPGQAPRLLIHGAFSRATGIPDRFSGSGSGPDFTLTISRLEPEDFAVYYCQQYGTSPFTFGPGTKVDIK")
"78%"
>>> reading("40C4C6 (chimeric antibody purified from hybridoma supernatant) (antibody, V domains shown, also called mAb09; mAb009) VH: QVQLVESGGGVVQPGRSLRLSCAASGFTFSSYGMHWVRQAPGKGLEWVAVIWYDGRNKYYADSVKGRFTISRDNSKNTLYLQMNSLRAEDTAVYYCARASGSYSYYFDYWGQGTLVTVSS VL: DIQMTQSPSSLSASVGGRVTITCRASQSISSFLNWYQHELGKAPKLLIYGASSLQSGVPSRFSGSGSGTDFTLTISSLQPEDFATYYCQQTYSTPFTFGPGTKVDIK")
"63.1%"
>>> reading("92C8B6 (chimeric antibody purified from hybridoma supernatant) (antibody, V domains shown, also called mAb42; mAb042) VH: QVQLVESGGGVVQPGRSLRLSCAASGFTFSNFGMHWVRQAPGKGLEWVAVIWYDGSNKYYADSVKGRFTISRDNSKNTLFLQMNGLRAEDTAVYYCAKGGILMAGTLDYWGQGTLVTVSS VL: DIQMTQSPSSLSASVGDRVTITCRASQSVSTYLNWYQQKPGKAPKLLIYAASSFQSGVPSRFSGSGSGTDFTLTISSLQPEDFATYFCQQSYSTPFTFGPGTKVDIK")
"93%"
